B1: FAM164C (parent)
chain: YPHCTGISQQDPESDSQGQGNGLF

# Variants of: B1
# assay_info: protein stability index of a GFP-peptide fusion (GPS, HEK-293T) (PSI 1-6); higher = more stable;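 also: lentivirally expressed fusions sorted by FACS into six bins by GFP to DsRed ratio, PSI derived from sequencing read proportions per bin multiplied by bin number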
# measurement_context: c terminus: a fixed tail appended
readout: protein stability index

> print(dat)
    variant  endpoint.result
 1      I7G             3.83
 2     Q10P             3.78
 3      P2C             2.45
 4     N21K             3.77
 5     S16F             3.13
 6     Q19F             2.88
 7     Q10F             3.19
 8      G6T             3.51
 9     G18S             3.77
10     G20S             3.79
11      Y1R             4.63
12      S8G             3.52
13     E13R             2.93
14      P2V             1.91
15     D15T             2.95
16      S8V             3.73
17     D15Q             3.44
18      Q9H             3.58
19      C4P             3.37
20     Q17N             4.14
21     P12K             3.57
22      H3C              3.1
23     G22H             2.97
24      S8E             4.17
25      S8K             4.15
26     E13I             3.21
27     G22V             3.73
28      G6F             3.01
29     S16P             3.92
30      C4S             4.16
31      G6S             3.82
32     Q17W             2.97
33     L23W             2.97
34     D11I              3.1
35     G20K             3.66
36      Y1V             5.07
37     Q10A             3.48
38      T5D              4.6
39     S16D             4.24
40     L23Y             4.26
41      S8D             3.91
42      I7N             4.11
43      C4D             5.02
44     P12A             3.95
45     P12W             3.27
46     D11V              3.5
47      Y1I             5.14
48      C4M             4.36
49      H3M             3.46
50      Y1T             5.38
51     F24I             4.82
52      T5Y             3.17
53     G18E             4.19
54      P2Q             3.58
55      T5F             2.32
56     E13P             3.51
57     Q19P             3.86
58     Q10T             3.64
59     D11N             3.62
60     Q10N             4.05
61     Q17V              3.4
62     F24C             4.73
63      T5P             3.25
64      I7A             4.04
65     Q19V             3.52
66      I7F             2.21
67     D11Q             3.73
68      C4F             3.58
69      H3R              3.6
70      I7L              3.9
71      G6K             3.23
72      S8I             3.59
73     G22R             3.78
74     S16E             4.16
75     N21Q             4.07
76      C4G              3.5
77     Q17K             3.51
78      G6L             3.25
79      P2M             4.07
80     Q17C             3.39
81     Q17Y             3.02
82      Y1C             4.29
83     Q17A             3.88
84     G18T             3.41
85      Y1H             4.85
86      C4I             3.72
87     S14Y             3.27
88      Y1E             5.25
89     N21D              4.5
90     Q19T             3.81
91      C4Q             4.53
